Test system: OPM-2 (MM)
Assay: Cell killing assay (cell proliferation, Cell Titer-Glo)
Type: cell-based
Set-up: key: NK = no killing; NB = no binding
Conditions: 72 hrs
measured quantity: Cell Killing Activity Span

[[record]]
molecule = "Conjugate F: anti-CD74 IgG containing residue 30 conjugated to a PEG4-MMAE precursor (conjugate) VH: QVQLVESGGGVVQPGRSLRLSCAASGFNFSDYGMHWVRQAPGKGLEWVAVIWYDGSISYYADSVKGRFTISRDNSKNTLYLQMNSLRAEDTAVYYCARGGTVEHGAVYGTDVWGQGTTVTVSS VL: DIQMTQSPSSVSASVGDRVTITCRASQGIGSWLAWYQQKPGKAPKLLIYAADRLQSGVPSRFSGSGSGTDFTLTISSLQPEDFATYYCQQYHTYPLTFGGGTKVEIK"
endpoint_result = "NK"


Source: patent US20200207859A1
